Biological target: UniProtKB Q8TDV5
Experiment: AlphaScreen cAMP assay in MIN6 cells stably transfected with human GPR119
Settings: Min-6/hGPR119 cells, 45 min incubation at room temperature
Could you please mark true for values of EC50 below 100 nM and false for values at or above it?

COMPOUND	ASSIGNED CATEGORY
CC(C)(C)OC(=O)N1CCC(N(C(=O)c2ccc(-c3cccnc3)cc2)C2CC2)CC1	false
CC(C)(C)OC(=O)N1CCC(N(C(=O)c2ccc(-n3cnnn3)cc2)C2CC2)CC1	false
CC(=O)Nc1nnc(-c2ccc(C(=O)N(C3CC3)C3CCN(C(=O)OC(C)(C)C)CC3)cc2)s1	false
CC(C)(C)OC(=O)N1CCC(N(C(=O)c2ccc(-c3ccc(C(N)=O)cc3)cc2)C2CC2)CC1	true
CC1CN(C(=O)OC(C)(C)C)CCC1N(C(=O)c1ccc(-c2cnco2)cc1)C1CC1 (stereo not shown)	true
CC(C)(C)OC(=O)N1CCC(N(C(=O)c2ccc(-c3ccc(S(C)(=O)=O)cn3)cc2)C2CC2)CC1	true
CC(C)(OC(=O)N1CCC(N(C(=O)c2ccc(-c3cnco3)cc2)C2CC2)CC1)C(F)(F)F	true
O=C(OCC1CCOCC1)N1CCC(N(C(=O)c2ccc(-c3cnco3)cc2)C2CC2)CC1	false
CC(C)(C)OC(=O)N1CCC(N(C(=O)c2ccc(-c3ccc(S(C)(=O)=O)cc3F)cc2)C2CC2)CC1	true
CNC(=O)c1ccc(-c2ccc(C(=O)N(C3CC3)C3CCN(C(=O)OC(C)(C)C)CC3)cc2)nc1	false
CC(C)(C)OC(=O)N1CCC(N(C(=O)c2ccc(-c3cnco3)cc2F)C2CC2)CC1	true
CNC(=O)Nc1nnc(-c2ccc(C(=O)N(C3CC3)C3CCN(C(=O)OC(C)(C)C)CC3)cc2)s1	false
O=C(OCc1ccccc1)N1CCC(N(C(=O)c2ccc(-c3cnco3)cc2)C2CC2)CC1	false
CC(C)(C)OC(=O)N1CCC(N(C(=O)c2ccc(-c3ccc(C#N)nc3)cc2)C2CC2)CC1	true
CC(C)(C)OC(=O)N1CCC(N(C(=O)c2ccc(-c3ocnc3I)cc2)C2CC2)CC1	false
CC(C)(C)OC(=O)N1CCC(N(C(=O)c2ccc(-c3ncon3)cc2)C2CC2)CC1	false

----------
As shown below, each of these compounds has a reported EC50 value.
Target: human GPR119 (Homo sapiens (Human), UniProt Q8TDV5)
Sequence (Q8TDV5 whole entry): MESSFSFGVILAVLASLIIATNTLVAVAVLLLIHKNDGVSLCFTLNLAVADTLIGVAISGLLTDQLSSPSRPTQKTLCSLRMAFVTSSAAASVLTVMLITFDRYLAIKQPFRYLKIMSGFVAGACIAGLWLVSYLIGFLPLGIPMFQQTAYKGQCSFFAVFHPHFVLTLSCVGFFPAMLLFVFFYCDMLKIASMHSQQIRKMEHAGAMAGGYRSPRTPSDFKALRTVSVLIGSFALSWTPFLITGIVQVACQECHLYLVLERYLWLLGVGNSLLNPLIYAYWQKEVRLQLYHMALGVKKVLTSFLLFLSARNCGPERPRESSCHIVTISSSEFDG
Experiment: AlphaScreen cAMP assay in MIN6 cells stably transfected with human GPR119
Details: Min-6/hGPR119 cells, 45 min incubation at room temperature
Description: The compounds of formula I according to the invention modulate the activity of the G-protein-coupled receptor GPR119. The effect of the compounds on the activation of GPR119 and on the stimulation of intracellular cAMP concentration is determined using the AlphaScreen cAMP Assay Kit (Cat. No. #6760625R) made by PerkinElmer. MIN6 cells [Miyazaki J et al. Endocrinology. 1990 July; 127(1):126-32] are stably transfected with an expression vector for human GPR119 cDNA (Acc. No. NP_848566). […]

COMPOUND	EC50 [nM]
CC(C)(C)OC(=O)N1CCC(N(C(=O)c2ccc(-c3ccncc3C#N)cc2)C2CC2)CC1	27
CC1(OC(=O)N2CCC(N(C(=O)c3ccc(-c4cnco4)cc3)C3CC3)CC2)CC1	52
CC(C)(C)OC(=O)N1CCC(N(C(=O)c2ccc(-c3ccno3)cc2)C2CC2)CC1	99
CNC(=O)Nc1nc(-c2ccc(C(=O)N(C3CC3)C3CCN(C(=O)OC(C)(C)C)CC3)cc2)ns1	500
CC(=O)NCc1ccc(-c2ccc(C(=O)N(C3CC3)C3CCN(C(=O)OC(C)(C)C)CC3)cc2)cc1	333
CC(C)OC(=O)N1CCC(N(C(=O)c2ccc(-c3ccc(C(N)=O)cc3)cc2)C2CC2)CC1	113
Cc1ncoc1-c1ccc(C(=O)N(C2CC2)C2CCN(C(=O)OC(C)(C)C)CC2)cc1	75
CC(C)(C)OC(=O)N1CC[C@@H](N(C(=O)c2ccc(-c3cnco3)cc2)C2CC2)[C@@H](F)C1 (single isomer, unassigned)	30
C[C@H]1CN(C(=O)OC(C)(C)C)CC[C@H]1N(C(=O)c1ccc(-c2cnco2)cc1)C1CC1 (single isomer, unassigned)	855
CC(C)(C)OC(=O)N1CCC(N(C(=O)c2ccc(-c3nnc(N)s3)cc2)C2CC2)CC1	875
Cn1cnc(-c2ccc(C(=O)N(C3CC3)C3CCN(C(=O)OC(C)(C)C)CC3)cc2)n1	2220
CC(=O)Nc1nc(-c2ccc(C(=O)N(C3CC3)C3CCN(C(=O)OC(C)(C)C)CC3)cc2)ns1	886
COc1ccc(-c2ccc(C(=O)N(C3CC3)C3CCN(C(=O)OC(C)(C)C)CC3)cc2)cn1	131
CC(C)(C)OC(=O)N1CCC(N(C(=O)c2ccc(-c3cncc(C#N)c3)cc2)C2CC2)CC1	48
CCCOC(=O)N1CCC(N(C(=O)c2ccc(-c3cnco3)cc2)C2CC2)CC1	80
CN(C)C(=O)Nc1nc(-c2ccc(C(=O)N(C3CC3)C3CCN(C(=O)OC(C)(C)C)CC3)cc2)ns1	1170
CC(C)(C)OC(=O)N1CCC(N(C(=O)c2ccc(-c3ccncc3)cc2)C2CC2)CC1	41
Cn1ncnc1-c1ccc(C(=O)N(C2CC2)C2CCN(C(=O)OC(C)(C)C)CC2)cc1	1000
